Value source: PubChem BioAssay (NCI)

# System: T-47D breast
# ASSAY TEXT: NCI-60 one-dose screen, 48 h (100 = growth as untreated, 0 = no growth, -100 = all killed)
# CONDITION NOTES: 10 µM
The panel holds about 83,000 compounds, 20% with a hit somewhere; the sample as a whole holds those more often.
PROPERTY: growth (%)
Dear colleague, please return just the value in %, with no unit written.

## Task GET /values?readout=growth&item= COc1cc2cc(C(=O)N3C[C@@H](CCl)c4c3cc(OC(=O)N3CCN(C)[C@@H]5CSSC[C@@H]53)c3ccccc43)[nH]c2c(OC)c1OC
## Result -5.73

## Task Same for C#CC[Se]C(=O)c1ccc2n[se]nc2c1
## Result 62.9

## Task Same for Cc1c2oc3c(C)ccc(C(=O)N[C@@H]4C(=O)N[C@H](C(C)C)C(=O)N5CCC[C@H]5C(=O)N(C)CC(=O)N(C)[C@@H](C(C)C)C(=O)OC4C)c3nc-2c(C(=O)N[C@@H]2C(=O)N[C@H](C(C)C)C(=O)N3CC(=O)C[C@H]3C(=O)N(C)CC(=O)N(C)[C@@H](C(C)C)C(=O)OC2C)c(N)c1=O (some centres undefined)
## Result -5

## Task Same for COC(=O)CCn1c(-c2ccc(-n3cc(-c4ccc(O[C@H]5O[C@@H]6OC7(C)CC[C@H]8[C@H](C)CC[C@@H]([C@H]5C)[C@@]68OO7)cc4)nn3)cc2)nc2ccccc21
## Result 14.9

## Task Same for COC(=O)c1ccc(-n2cc(CCCN(CCNc3ccnc4cc(Cl)ccc34)C(=O)CCC(=O)O[C@@H]3O[C@@H]4OC5(C)CC[C@H]6[C@H](C)CC[C@@H]([C@H]3C)[C@@]46OO5)nn2)cc1
## Result 37.6

## Task Same for CCC[Se]C(=O)c1ccc(C(=O)[Se]CCC)s1
## Result 30

## Task Same for COc1cc2cc(C(=O)N3C[C@@H](CCl)c4c3cc(OC(=O)N3CCN(C)[C@@H]5CSSC[C@H]53)c3ccccc43)[nH]c2c(OC)c1OC
## Result -11.8

## Task Same for C[C@H]1[C@H](OC(=O)CCC(=O)N(CCCc2cn(-c3ccc(CN4CCOCC4)cc3)nn2)CCNc2ccnc3cc(Cl)ccc23)O[C@@H]2OC3(C)CC[C@H]4[C@H](C)CC[C@@H]1[C@@]24OO3
## Result 25.4

## Task Same for O=C(/C=C/c1ccccc1)c1nc2ccccc2n1Cc1ccc(Br)cc1
## Result -31.3

## Task Same for O=C(NCCCCC(c1ccc(F)cc1)c1ccc(F)cc1)Nc1ccc([N+](=O)[O-])c(C(F)(F)F)c1
## Result -10.4

## Task Same for COc1cc(OC)c(S(=O)(=O)N(CCCl)CCCl)cc1C(=O)/C=C/c1cc(OC)c(OC)c(OC)c1
## Result 21

## Task Same for O=C(/C=C/c1ccco1)c1nc2ccccc2n1Cc1ccc(Br)cc1
## Result 4.25

## Task Same for CC[C@@]12CC(C(=O)OC)=C3Nc4cc5c(cc4[C@@]34CCN(C[C@H]3O[C@H]31)[C@@H]24)[C@@H]1[C@H](O5)[C@@H](O)[C@@]2(CC)CC(C(=O)OC)=C3Nc4cc(OC)ccc4[C@@]34CCN1[C@@H]24
## Result 25.7

## Task Same for COP(=O)(CC(F)(F)C(F)(F)F)OC
## Result 13.2

---

What growth was measured for each of the following?
# Tested on: MDA-MB-468 breast
# ASSAY TEXT: NCI-60 one-dose screen, 48 h (100 = growth as untreated, 0 = no growth, -100 = all killed)
# CONDITION NOTES: 10 µM unless noted
This is part of a sample that, as a whole, favours compounds with a hit. Of some 83,000 tested, about 20% had one in any assay.
Dear colleague, please return just the value in %, with no unit written.

## Task GET /values?readout=growth&item= Brc1ccc2c(c1)c(-c1nc(-c3c[nH]c4ncccc34)cs1)cn2CCN1CCOCC1
## Result 34.2

## Task Same for CC1=C(CCCOC(=O)[C@H](N)CC(C)C)C2=C(C)C3(CC3)[C@@](C)(O)C(=O)C2=C1
## Result -61.5

## Task Same for CC[C@]12C=CCN3CC[C@@]4(c5ccc(OC)cc5N(C)[C@H]4[C@@](O)(C(=O)OC)[C@@H]1OC(=O)CCCC[P+](C1CCCCC1)(C1CCCCC1)C1CCCCC1)[C@@H]32
## Result -79

## Task Same for O=C(CI)Nc1ccc(Br)cc1
## Result 79.1

## Task Same for CCN(CC)CCOC(=O)C(OC(C)C)(c1ccccc1)c1ccccc1
## Result 95.1

---

# Tested on: MDA-MB-468 breast
# ASSAY TEXT: NCI-60 one-dose screen, 48 h (100 = growth as untreated, 0 = no growth, -100 = all killed)
# CONDITION NOTES: 10 µM unless noted
Compounds without any hit were thinned out: in the full panel of roughly 83,000, 20% have a hit.
What growth was measured for each of the following?
Dear colleague, please return just the value in %, with no unit written.

## Task Please state recorded growth (tested on MDA-MB-468 breast) of O=C(/C=C/c1ccc(Br)cc1)c1nc2ccccc2n1Cc1ccc(Br)cc1
## Result -74.3

## Task Same for COc1ccc(-n2c(C)nc3cc(OC)c(OC)cc3c2=O)cc1OC
## Result 114

## Task Same for CC1=C[C@H]2O[C@@H]3C[C@H]4OC(=O)/C=C\C=C\[C@H]([C@@H](C)O)OCC[C@@H](C)[C@H](O)C(=O)OC[C@@]2(CC1)[C@]4(C)[C@]31CO1
## Result -66.7

## Task Same for CC(=O)[C@H]1CC[C@H]2[C@@H]3CC[C@H]4C[C@H](N)CC[C@]4(C)[C@H]3CC[C@]12C
## Result 64.1

## Task Same for COc1ccc(C2=N[C@@H](Cc3ccccc3)C(=O)Nc3ccsc32)cc1
## Result 8.23

## Task Same for O=[N+]([O-])c1cc([N+](=O)[O-])c(Cl)cc1Cl
## Result -73.8

## Task Same for C[C@]12CC[C@@H]3c4ccc(Oc5nc(N6CC6)nc(N6CC6)n5)cc4CC[C@H]3[C@@H]1CCC2=O
## Result 30.4

## Task Same for COc1cccc(C=NC(Cc2cnc[nH]2)C(=O)O)c1O (centres undefined)
## Result 55.4

## Task Same for O=C(Nc1ccc([As]=[As]c2ccc(NC(=O)c3ccccc3)cc2)cc1)c1ccccc1 (centres undefined)
## Result -74.8

---

# Test system: SNB-75 CNS
# ASSAY TEXT: NCI-60 one-dose screen, 48 h (100 = growth as untreated, 0 = no growth, -100 = all killed)
# CONDITION NOTES: 10 µM
About 83,000 compounds went through this panel and 20% of them were active in at least one assay; those are over-represented in the sample as a whole.
PROPERTY: growth (%)
Dear colleague, please return just the value in %, with no unit written.

## Task GET /values?readout=growth&item= CN(C)CCc1cn(C2CCC2)c2cccc(O)c12
## Result 58.3

## Task Same for COc1cc(OC)c(S(=O)(=O)N(CCCl)CCCl)cc1C(=O)/C=C/c1ccc(C)cc1
## Result 90.1

## Task Same for C[C@H]1[C@H](OC(=O)CCC(=O)Nc2cnccn2)O[C@@H]2OC3(C)CC[C@H]4[C@H](C)CC[C@@H]1[C@@]24OO3
## Result 72.6

## Task Same for C#CCCCN(CCNc1ccnc2cc(Cl)ccc12)C(=O)CCC(=O)O[C@@H]1O[C@@H]2OC3(C)CC[C@H]4[C@H](C)CC[C@@H]([C@H]1C)[C@@]24OO3
## Result 67

## Task Same for CC(C)C[C@H](NC(=O)CNC(=O)C[C@H]1O[C@@H]2OC3(C)CC[C@H]4[C@H](C)CC[C@@H]([C@H]1C)[C@@]24OO3)B(O)O
## Result -15.7

## Task Same for CC[C@]12C=CCN3CC[C@@]4(c5ccc(OC)cc5N(C)[C@H]4[C@@](O)(C(=O)OC)[C@@H]1OC(=O)CCCC[P+](c1ccc(OC)cc1)(c1ccc(OC)cc1)c1ccc(OC)cc1)[C@@H]32
## Result -95.4

---

# Tested on: SF-268 CNS
# ASSAY TEXT: NCI-60 one-dose screen, 48 h (100 = growth as untreated, 0 = no growth, -100 = all killed)
# CONDITION NOTES: 10 µM
The panel holds about 83,000 compounds, 20% with a hit somewhere; the sample as a whole holds those more often.
# strict inequality: growth < 20% yields Met, everything else yields Not met

## Task Record CC1=C(CCC=NNC(N)=O)C2=C(C)C3(CC3)[C@@](C)(O)C(=O)C2=C1 : is its growth strictly below 20%?
## Result Met

## Task Same for O=C(/C=C/c1ccco1)c1nc2ccccc2n1Cc1ccc(Br)cc1
## Result Not met

## Task Same for CC(=O)Oc1ccccc1C(=O)NC([Se])=NC1CCCCC1
## Result Not met

## Task Same for COc1ccc(/C=C/C(=O)c2nc3ccccc3n2Cc2ccc(Br)cc2)cc1
## Result Not met

## Task Same for CC1=C(CCC=O)C2=C(C)C3(CC3)[C@@](C)(O)C(=O)C2=C1
## Result Met

## Task Same for O=C(/C=C/c1cccc(Br)c1)c1nc2ccccc2n1Cc1ccc(F)cc1
## Result Not met

## Task Same for COc1cc(OC)c(/C=C/C(=O)c2nc3ccccc3n2Cc2ccc(F)cc2)c(OC)c1
## Result Not met

## Task Same for O=C([Se]C1C=CCCC1)c1ccc(C(=O)[Se]C2C=CCCC2)s1 (stereo not given)
## Result Met

## Task Same for O=C(NCCCCC(c1ccc(F)cc1)c1ccc(F)cc1)Nc1ccc([N+](=O)[O-])c(C(F)(F)F)c1
## Result Met

## Task Same for CC12OOC(C)(OO1)C2CCC(=O)NCCNc1ccnc2cc(Cl)ccc12 (stereo not given)
## Result Not met
